Experiment: Aqueous solubility
Assay type: physicochemical
Conditions: aqueous media
endpoint name: solubility (µg/mL)

1. CC(=O)c1ccc(-n2c(=O)n3n(c2=O)C2C(=CC3)C(C)(C)Oc3cc(O)ccc32)cc1 (stereo not shown) = 162

###

Test system: Raw 264.7 cell
Assay: WST (water-soluble tetrazolium) analysis, relative cell viability
Type: cell-based
Conditions: 100 ng/mL LPS and compounds 24 hours
Each entry below lists one item and its recorded Relative Cell Viability (%) value.
endpoint name: Relative Cell Viability (%)

1) CC1(C)Oc2cc(O)ccc2C2C1=CCn1c(=O)n(-c3ccc(C(C)(C)C)cc3)c(=O)n12 (centres unmarked) = 105
2) CC1(C)Oc2cc(O)ccc2C2C1=CCn1c(=O)n(C3CCCCC3)c(=O)n12 (centres unmarked) = 117
3) COc1ccc(-n2c(=O)n3n(c2=O)C2C(=CC3)C(C)(C)Oc3cc(O)ccc32)cc1 (centres unmarked) = 127
4) CCCCc1ccc(-n2c(=O)n3n(c2=O)C2C(=CC3)C(C)(C)Oc3cc(O)ccc32)cc1 (centres unmarked) = 50
5) Cn1c(=O)n2n(c1=O)C1C(=CC2)C(C)(C)Oc2cc(O)ccc21 (centres unmarked) = 114
6) CC1(C)Oc2cc(O)ccc2C2C1=CCn1c(=O)n(-c3ccc(F)cc3)c(=O)n12 (centres unmarked) = 109
7) COc1cc(OC)cc(-n2c(=O)n3n(c2=O)C2C(=CC3)C(C)(C)Oc3cc(O)ccc32)c1 (centres unmarked) = 121
8) Cc1ccc(-n2c(=O)n3n(c2=O)C2C(=CC3)C(C)(C)Oc3cc(O)ccc32)cc1 (centres unmarked) = 130
